Test system: Saccharomyces cerevisiae
Assay: protein stability index of tFT-peptide fusion (C-terminal peptide) (PSI (0-1 scale)); higher = more stable (slower turnover)
Conditions: genetic background: wild type; temperature: 30 C
Below, each of the sequences is paired with its reported protein stability index value.
experimental endpoint: protein stability index

INSERT INTO assay_data (seq, system_tested, experimental_endpoint, obs_value) VALUES
  ('VLSPVFLISLFS', 'Saccharomyces cerevisiae', 'protein stability index', 0.552),
  ('YDGGLAALQVLL', 'Saccharomyces cerevisiae', 'protein stability index', 0.68),
  ('LTNLGSDRCRLQ', 'Saccharomyces cerevisiae', 'protein stability index', 0.623),
  ('LRASVFPVLDMC', 'Saccharomyces cerevisiae', 'protein stability index', 0.718),
  ('SGGWLAACYAVY', 'Saccharomyces cerevisiae', 'protein stability index', 0.668),
  ('VGESGEGVVMGE', 'Saccharomyces cerevisiae', 'protein stability index', 0.677),
  ('RGGRGAVRWLRG', 'Saccharomyces cerevisiae', 'protein stability index', 0.668),
  ('CQWLIVEWEEKG', 'Saccharomyces cerevisiae', 'protein stability index', 0.662),
  ('SPPPSSTSTSTS', 'Saccharomyces cerevisiae', 'protein stability index', 0.688),
  ('FFMWDLLFLSLD', 'Saccharomyces cerevisiae', 'protein stability index', 0.669),
  ('RLLSIFKILHVG', 'Saccharomyces cerevisiae', 'protein stability index', 0.188),
  ('SPPHPRPPTLRT', 'Saccharomyces cerevisiae', 'protein stability index', 0.609),
  ('GLVLPGHLTLAS', 'Saccharomyces cerevisiae', 'protein stability index', 0.628),
  ('LVVYLSCVACIN', 'Saccharomyces cerevisiae', 'protein stability index', 0.0328),
  ('ISPSASTSRPFQ', 'Saccharomyces cerevisiae', 'protein stability index', 0.697),
  ('SLNQWTGTTLRQ', 'Saccharomyces cerevisiae', 'protein stability index', 0.66),
  ('LLSAVVDHTHLQ', 'Saccharomyces cerevisiae', 'protein stability index', 0.664),
  ('ERNKQNVTQKVK', 'Saccharomyces cerevisiae', 'protein stability index', 0.723),
  ('KQNRKEKVQRNR', 'Saccharomyces cerevisiae', 'protein stability index', 0.709);

---

Below: a set of entries, each annotated with reported protein stability index.
Tested on: Saccharomyces cerevisiae
Assay: protein stability index of tFT-peptide fusion (C-terminal peptide) (PSI (0-1 scale)); higher = more stable (slower turnover)
Conditions: genetic background: das1 deletion; temperature: 30 C
experimental endpoint: protein stability index

INSERT INTO measurements (seq, obs_value) VALUES
  ('RRRASKNAFRGM [ENP2 C-terminal 12 aa]', 0.696),
  ('IQELVNTIRELQ [YPL077C C-terminal 12 aa]', 0.69),
  ('RIIEYFEEYQCW [FRE6 C-terminal 12 aa]', 0.712),
  ('GEDPYADLFRDF [TPK1 C-terminal 12 aa]', 0.731),
  ('NQKNEDLSDIKL [UTP30 C-terminal 12 aa]', 0.658),
  ('YGLNIGRPDFYR [TAF10 C-terminal 12 aa]', 0.725);

---

Test system: Saccharomyces cerevisiae
Assay: protein stability index of tFT-peptide fusion (C-terminal peptide) (PSI (0-1 scale)); higher = more stable (slower turnover)
Conditions: genetic background: wild type; temperature: 30 C
Is protein stability index at least 0.6? Then label 1. If not, label 0.

INSERT INTO results (seq, classification) VALUES
  ('DKIYNRNSKRRI', 'label 1'),
  ('SPSPPLAPPSPS', 'label 1'),
  ('WGGYSLKFRTRR', 'label 1'),
  ('VVVGRWSVLSSV', 'label 0'),
  ('SSRRNNIPKRYK', 'label 1'),
  ('PLPTHISPPLPS', 'label 1'),
  ('ASTSPSASSSPP', 'label 1'),
  ('LPVLCSRVFVSS', 'label 0'),
  ('RDALVNADKIGR', 'label 1'),
  ('QGVGDILARVQG', 'label 1'),
  ('LRSPPPVSHRLP', 'label 1'),
  ('LFVCVFRPWLGG', 'label 1'),
  ('LYSNVLAAVMTG', 'label 1'),
  ('VEGINSQERLGV', 'label 1'),
  ('MGIVEGIGASSL', 'label 1'),
  ('INWIHERNDKSI', 'label 1'),
  ('WLPFFPLSLRGV', 'label 0'),
  ('VPGASSSLSSSP', 'label 1'),
  ('YMLSMIYEIEMM', 'label 0'),
  ('CGAAFRSWTVRG', 'label 1'),
  ('GVTGRGVSRVYG', 'label 1'),
  ('HVLRCRASLLFL', 'label 1'),
  ('EVKDDSKVVVYV', 'label 1'),
  ('RCCWWNAQAVWR', 'label 0'),
  ('AAAWWGPRNRGL', 'label 1'),
  ('PSLSPAPLPGLP', 'label 1'),
  ('SWGEQDRLTGYI', 'label 1'),
  ('LILLTFTLRVPV', 'label 0'),
  ('AIGSVWACVCCS', 'label 0'),
  ('VRDLDMEEISRY', 'label 1'),
  ('ELGLGGCGGLGV', 'label 1'),
  ('LHCKRPTPLTDS', 'label 1'),
  ('YINVEPRITKNT', 'label 1'),
  ('VRRTRGGLRGWS', 'label 1'),
  ('YVFFPNGGLRLG', 'label 0'),
  ('RLCSPVSVLLPP', 'label 1');
